Examples of compounds with documented Inhibition follow.
Tested on: HepG2
testProtocol: GSK_TCMDC: Percent inhibition of human HepG2 cell line. Test compounds present at 10uM.
Assay type: functional
Give your result in % as a bare value.

[[record]]
compound = "CCOc1ccc2nccc([C@@H](O)[C@@H]3C[C@@H]4CCN3C[C@@H]4CC)c2c1.Cl [ETHYLHYDROCUPREINE HYDROCHLORIDE]"
systemname = "HepG2"
outcomemeasure = "Inhibition"
testvalue = 24

[[record]]
compound = "CC(Cc1ccc(Oc2ccccc2)cc1)NCC(O)c1cccc(C(F)(F)F)c1 (stereo not given)"
systemname = "HepG2"
outcomemeasure = "Inhibition"
testvalue = 16

[[record]]
compound = "O=C(C=Cc1ccccc1O)N1CCC(CN2CCC(c3c[nH]c4ccccc34)CC2)CC1"
systemname = "HepG2"
outcomemeasure = "Inhibition"
testvalue = 27

[[record]]
compound = "Cc1ccc(CC(C)NCC(O)c2cccc(C#N)c2)cc1 (stereo not given)"
systemname = "HepG2"
outcomemeasure = "Inhibition"
testvalue = 2

[[record]]
compound = "CC[C@H]1CN2CC[C@@H]1C[C@H]2[C@H](O)c1cc(N2CCOCC2)nc2ccc(OC)cc12"
systemname = "HepG2"
outcomemeasure = "Inhibition"
testvalue = 10

[[record]]
compound = "CN(c1cc(NC(=O)c2ccc(F)cc2)ccn1)C1CCN(Cc2cccc(O)c2)CC1.O=C(O)C(F)(F)F"
systemname = "HepG2"
outcomemeasure = "Inhibition"
testvalue = 3


Input line: Give the measured Inhibition of COc1ccc(CN2CCN(CCOC(c3ccccc3)c3ccccc3)CC2)c(O)c1 .
Output line: 19

Input line: Give the measured Inhibition of CN1CC=C(c2c[nH]c3ccc(-c4ccccc4)cc23)CC1 .
Output line: 14

Input line: Give the measured Inhibition of CCOc1ccc2nccc([C@@H](O)[C@@H]3C[C@@H]4CCN3C[C@@H]4CC)c2c1 [ETHYLHYDROCUPREINE] .
Output line: 1

Input line: Give the measured Inhibition of O=C(Cc1c(-c2ccccc2)[nH]c2ccccc12)NC1CCC(CN2CCC(c3c[nH]c4ccccc34)CC2)CC1 (stereo not given) .
Output line: 31
